# method: budding yeast growth changes without added modifier – OD600, strain BY4716, 24 h, basal condition, primary screen (AID 1173)
# testParameters: S. cerevisiae BY4716 growth, OD600, 24 h; higher = more signal, called active from +8 up or from −8 down
metricName: z-score
Would you mind answering with just the numeric figure?

The measured z-score associated with CN1C(=O)C2C=CC(C(O)C3CCCCC3)N(N(c3ccccc3)c3ccccc3)C2C1=O (centres undefined) reads 0.495

# z-score (compound: O=C1N(CCS(=O)(=O)c2ccccc2)Cc2ccccc2C[C@@]12COC(c1ccc(OCCCO)cc1)=N2 ) is 1.58

The reported z-score of the compound COCCCNC(=O)[C@@]1(Cc2ccccc2I)c2ccccc2C(=O)N(Cc2ccccc2Cl)[C@H]1c1ccc(CO)cc1 was -1

Data point: C=C(/C(=C/C[C@@H](OC(C)=O)c1ccccc1OCCO)c1cnc2ccccc2c1)C(C)C ; z-score = -1.34

The reported numbers originate from PubChem BioAssay.
